- assayed.target: Epidermal growth factor receptor [T790M,L858R] (Homo sapiens, UniProt P00533, L858R/T790M)
- Sequence (P00533 25-1210 T790M/L858R limits assumed): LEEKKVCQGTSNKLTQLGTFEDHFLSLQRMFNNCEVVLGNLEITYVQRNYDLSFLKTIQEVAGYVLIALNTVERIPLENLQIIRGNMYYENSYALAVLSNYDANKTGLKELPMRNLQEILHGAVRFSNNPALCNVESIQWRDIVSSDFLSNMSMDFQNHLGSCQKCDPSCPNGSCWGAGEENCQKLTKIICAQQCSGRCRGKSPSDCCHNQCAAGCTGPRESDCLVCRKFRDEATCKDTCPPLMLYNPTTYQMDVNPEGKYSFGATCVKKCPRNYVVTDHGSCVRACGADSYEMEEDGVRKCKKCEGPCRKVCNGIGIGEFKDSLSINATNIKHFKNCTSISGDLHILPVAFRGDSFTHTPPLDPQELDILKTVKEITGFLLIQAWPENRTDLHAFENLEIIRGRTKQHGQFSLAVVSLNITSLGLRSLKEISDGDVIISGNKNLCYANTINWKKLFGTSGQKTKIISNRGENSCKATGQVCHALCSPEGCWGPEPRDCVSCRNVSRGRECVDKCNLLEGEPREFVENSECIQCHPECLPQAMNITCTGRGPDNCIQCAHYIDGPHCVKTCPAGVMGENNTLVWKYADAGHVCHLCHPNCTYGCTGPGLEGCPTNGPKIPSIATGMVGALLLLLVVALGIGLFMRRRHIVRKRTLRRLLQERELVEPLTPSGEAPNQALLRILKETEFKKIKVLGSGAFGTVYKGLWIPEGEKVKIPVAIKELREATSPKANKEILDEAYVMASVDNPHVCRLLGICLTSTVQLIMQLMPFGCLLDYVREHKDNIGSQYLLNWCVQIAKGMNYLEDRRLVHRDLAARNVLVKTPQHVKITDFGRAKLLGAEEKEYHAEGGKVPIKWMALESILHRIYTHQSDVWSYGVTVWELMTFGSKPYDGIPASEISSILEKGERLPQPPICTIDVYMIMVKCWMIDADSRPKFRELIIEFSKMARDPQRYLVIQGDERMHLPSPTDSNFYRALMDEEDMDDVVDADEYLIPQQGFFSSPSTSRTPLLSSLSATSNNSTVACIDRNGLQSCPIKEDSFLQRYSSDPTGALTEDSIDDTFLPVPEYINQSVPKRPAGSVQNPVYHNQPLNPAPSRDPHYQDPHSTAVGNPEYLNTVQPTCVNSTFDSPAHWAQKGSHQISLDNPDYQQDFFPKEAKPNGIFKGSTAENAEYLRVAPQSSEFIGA
- assay.explanation: Kinase assay
pKd: −log10 of the molar value.
readout.label: pKd

Q. # input molecule: CCOc1cc2ncc(C#N)c(Nc3ccc(OCc4cccc(F)c4)c(Cl)c3)c2cc1NC(=O)CC1CCSS1 (stereo unspecified) ; wanted: its pKd
A. < 5.00
